This collection of values is drawn from patent US7592336B2.

# System: human pancreatic chymotrypsin
# Construct: "human pancreatic chymotrypsin"
# method notes: Specificity assay, chymotrypsin
# Type: biochemical
# assay setup: 2 h enzyme-inhibitor pre-incubation; read-out: Chymotrypsin activity in the specificity assays (IC50)
pIC50: −log10 of the molar value.
value type: pIC50

## Input Kindly state the measured pIC50 obtained for C=C[C@@H]1C[C@]1(NC(=O)[C@@H]1C[C@@](O)(c2ccc(-c3ccccc3)cc2)CN1C(=O)[C@@H](NC(=O)OC(C)(C)C)C(C)(C)C)C(=O)NS(=O)(=O)C1CC1 with human pancreatic chymotrypsin.
## Output < 4.00

* * *

I'd appreciate it if you could supply pEC50 values for the items below.
# Test system: HCV replicon in HUH-7 cells
# method notes: HCV replicon FRET assay
# Type: cell-based, HCV strain 1b
# assay setup: Hepatitis C virus, Huh-7; HCV replicon cell assay; read-out: Activity Range (EC50)
pEC50: −log10 of the molar value.

## Input Kindly state the measured pEC50 obtained for C=C[C@@H]1C[C@]1(NC(=O)[C@@H]1C[C@@H](c2ccccc2)CN1C(=O)[C@@H](NC(=O)OC(C)(C)C)C(C)(C)C)C(=O)NS(=O)(=O)C1CC1 [Compound 1] with HCV replicon in HUH-7 cells.
## Output 5.00 to 6.00

## Input Try this molecule too: C=C[C@@H]1C[C@]1(NC(=O)[C@@H]1C[C@@](O)(c2ccc(-c3ccccc3)cc2)CN1C(=O)[C@@H](NC(=O)OC(C)(C)C)C(C)(C)C)C(=O)NS(=O)(=O)C1CC1 [Compound 3]
## Output 6.00 to 8.00

## Input Try this molecule too: C=C[C@@H]1C[C@]1(NC(=O)[C@@H]1C[C@@](O)(c2cc(C)cc(C)c2)CN1C(=O)[C@@H](NC(=O)OC(C)(C)C)C(C)(C)C)C(=O)NS(=O)(=O)C1CC1 [Compound 21]
## Output 5.00 to 6.00

## Input Try this molecule too: C=C[C@@H]1C[C@]1(NC(=O)[C@@H]1C[C@@](O)(c2cc(C)ccc2C)CN1C(=O)[C@@H](NC(=O)OC(C)(C)C)C(C)(C)C)C(=O)NS(=O)(=O)C1CC1 [Compound 24]
## Output 5.00 to 6.00

## Input Try this molecule too: C=C[C@@H]1C[C@]1(NC(=O)[C@@H]1C[C@@](O)(c2ccc(C)c(F)c2)CN1C(=O)[C@@H](NC(=O)OC(C)(C)C)C(C)(C)C)C(=O)NS(=O)(=O)C1CC1 [Compound 23]
## Output 5.00 to 6.00

## Input Try this molecule too: C=C[C@@H]1C[C@]1(NC(=O)[C@@H]1C[C@@](O)(c2cccc(-c3ccc(OC)cc3)c2)CN1C(=O)[C@@H](NC(=O)OC(C)(C)C)C(C)(C)C)C(=O)NS(=O)(=O)C1CC1 [Compound 8]
## Output 5.00 to 6.00

## Input Try this molecule too: C=C[C@@H]1C[C@]1(NC(=O)[C@@H]1C[C@@](O)(c2cccc(CN3CCCC3)c2)CN1C(=O)[C@@H](NC(=O)OC(C)(C)C)C(C)(C)C)C(=O)NS(=O)(=O)C1CC1 [Compound 17]
## Output < 5.00

## Input Try this molecule too: C=C[C@@H]1C[C@]1(NC(=O)[C@@H]1C[C@@](O)(c2cccc(C)c2)CN1C(=O)[C@@H](NC(=O)OC(C)(C)C)C(C)(C)C)C(=O)NS(=O)(=O)C1CC1 [Compound 13]
## Output 5.00 to 6.00

## Input Try this molecule too: C=C[C@@H]1C[C@]1(NC(=O)[C@@H]1C[C@@](O)(c2ccccc2)CN1C(=O)[C@@H](NC(=O)OC(C)(C)C)C(C)(C)C)C(=O)NS(=O)(=O)C1CC1 [Compound 4]
## Output 5.00 to 6.00

## Input Try this molecule too: C=C[C@@H]1C[C@]1(NC(=O)[C@@H]1C[C@@](O)(c2cccc(F)c2)CN1C(=O)[C@@H](NC(=O)OC(C)(C)C)C(C)(C)C)C(=O)NS(=O)(=O)C1CC1 [Compound 10]
## Output 5.00 to 6.00

## Input Try this molecule too: C=C[C@@H]1C[C@]1(NC(=O)[C@@H]1C[C@@H](Cc2ccccc2)CN1C(=O)[C@@H](NC(=O)OC(C)(C)C)C(C)(C)C)C(=O)NS(=O)(=O)C1CC1 [Compound 2]
## Output < 5.00

## Input Try this molecule too: C=C[C@@H]1C[C@]1(NC(=O)[C@@H]1C[C@@](O)(c2cccc(C(C)C)c2)CN1C(=O)[C@@H](NC(=O)OC(C)(C)C)C(C)(C)C)C(=O)NS(=O)(=O)C1CC1 [Compound 14]
## Output 5.00 to 6.00

## Input Try this molecule too: C=C[C@@H]1C[C@]1(NC(=O)[C@@H]1C[C@@](O)(c2ccc(F)c(C)c2)CN1C(=O)[C@@H](NC(=O)OC(C)(C)C)C(C)(C)C)C(=O)NS(=O)(=O)C1CC1 [Compound 22]
## Output 5.00 to 6.00

## Input Try this molecule too: C=CC[C@]1(O)C[C@@H](C(=O)N[C@]2(C(=O)NS(=O)(=O)C3CC3)C[C@H]2C=C)N(C(=O)[C@@H](NC(=O)OC(C)(C)C)C(C)(C)C)C1 [Compound 9]
## Output < 5.00

## Input Try this molecule too: C=C[C@@H]1C[C@]1(NC(=O)[C@@H]1C[C@@](O)(c2cccc(OC(C)C)c2)CN1C(=O)[C@@H](NC(=O)OC(C)(C)C)C(C)(C)C)C(=O)NS(=O)(=O)C1CC1 [Compound 15]
## Output 5.00 to 6.00

## Input Try this molecule too: C=C[C@@H]1C[C@]1(NC(=O)[C@@H]1C[C@@](O)(c2cccc(OC)c2)CN1C(=O)[C@@H](NC(=O)OC(C)(C)C)C(C)(C)C)C(=O)NS(=O)(=O)C1CC1 [Compound 11]
## Output 5.00 to 6.00

## Input Try this molecule too: C=C[C@@H]1C[C@]1(NC(=O)[C@@H]1C[C@@](O)(c2ccccc2CN2CCOCC2)CN1C(=O)[C@@H](NC(=O)OC(C)(C)C)C(C)(C)C)C(=O)NS(=O)(=O)C1CC1 [Compound 20]
## Output 5.00 to 6.00

## Input Try this molecule too: C=C[C@@H]1C[C@]1(NC(=O)[C@@H]1C[C@@](O)(c2ccc(OC)cc2)CN1C(=O)[C@@H](NC(=O)OC(C)(C)C)C(C)(C)C)C(=O)NS(=O)(=O)C1CC1 [Compound 7]
## Output 5.00 to 6.00

## Input Try this molecule too: C=C[C@@H]1C[C@]1(NC(=O)[C@@H]1C[C@@](O)(c2cc(F)ccc2OC)CN1C(=O)[C@@H](NC(=O)OC(C)(C)C)C(C)(C)C)C(=O)NS(=O)(=O)C1CC1 [Compound 25]
## Output 5.00 to 6.00

## Input Try this molecule too: C=C[C@@H]1C[C@]1(NC(=O)[C@@H]1C[C@@](O)(c2cccc(CN3CCCCC3)c2)CN1C(=O)[C@@H](NC(=O)OC(C)(C)C)C(C)(C)C)C(=O)NS(=O)(=O)C1CC1 [Compound 18]
## Output < 5.00

* * *

# assayed system: HCV NS3/4A protease complex, J4L6S strain (Hepatitis C virus genotype 1b, UniProt O92972, C1454S/C1711G)
# Construct: DNA encoding the recombinant HCV NS3/4A protease complex (amino acids 1027 to 1711) for these strains; inferred from pET21b vector and Ni-NTA purification
# Sequence (O92972 1027-1711 C1454S/C1711G, one chain of several): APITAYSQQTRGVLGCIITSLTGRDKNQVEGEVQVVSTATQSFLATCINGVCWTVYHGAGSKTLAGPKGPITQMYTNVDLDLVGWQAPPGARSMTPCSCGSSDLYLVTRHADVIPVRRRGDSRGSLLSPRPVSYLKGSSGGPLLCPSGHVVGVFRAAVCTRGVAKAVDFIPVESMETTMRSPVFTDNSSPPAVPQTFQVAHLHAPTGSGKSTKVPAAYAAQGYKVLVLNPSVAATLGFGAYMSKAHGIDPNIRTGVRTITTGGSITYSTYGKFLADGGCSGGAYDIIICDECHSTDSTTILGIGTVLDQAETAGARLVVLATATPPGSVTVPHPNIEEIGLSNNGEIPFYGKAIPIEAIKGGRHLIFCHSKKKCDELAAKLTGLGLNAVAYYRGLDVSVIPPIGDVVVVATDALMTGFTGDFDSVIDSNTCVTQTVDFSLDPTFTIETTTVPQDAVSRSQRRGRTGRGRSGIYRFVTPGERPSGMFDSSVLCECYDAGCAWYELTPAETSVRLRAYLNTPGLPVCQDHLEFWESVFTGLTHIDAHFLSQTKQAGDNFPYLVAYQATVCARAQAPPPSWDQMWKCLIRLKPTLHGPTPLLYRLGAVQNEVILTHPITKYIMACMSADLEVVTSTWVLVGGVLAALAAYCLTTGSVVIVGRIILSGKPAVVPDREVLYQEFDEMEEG
# method notes: FRET peptide assay to monitor HCV NS3/4A proteolytic activity (J4L6S strain)
# assay setup: read-out: IC50 against NS3/4A J4L6S strain
value type: pIC50
# log scale: pIC50 equals minus log10 of the concentration in mol/L

## Input Record request: pIC50 value, item C=C[C@@H]1C[C@]1(NC(=O)[C@@H]1C[C@@](O)(c2ccc(-c3ccccc3)cc2)CN1C(=O)[C@@H](NC(=O)OC(C)(C)C)C(C)(C)C)C(=O)NS(=O)(=O)C1CC1
## Output 9.05

* * *

I'd appreciate it if you could supply IC50 values for the items below.
# assayed system: HCV NS3/4A protease complex, BMS strain (UniProt P27958, species not given/STRAIN_BMS)
# Construct: said of H77 and J4L6S, not expressly of BMS; fused on or other part: A three-lysine solubilising tail at the NS4A C-terminus and purification on Ni-NTA are described for the H77 and J4L6S constructs
# Sequence (P27958 1027-1657, change not shown, one chain of several): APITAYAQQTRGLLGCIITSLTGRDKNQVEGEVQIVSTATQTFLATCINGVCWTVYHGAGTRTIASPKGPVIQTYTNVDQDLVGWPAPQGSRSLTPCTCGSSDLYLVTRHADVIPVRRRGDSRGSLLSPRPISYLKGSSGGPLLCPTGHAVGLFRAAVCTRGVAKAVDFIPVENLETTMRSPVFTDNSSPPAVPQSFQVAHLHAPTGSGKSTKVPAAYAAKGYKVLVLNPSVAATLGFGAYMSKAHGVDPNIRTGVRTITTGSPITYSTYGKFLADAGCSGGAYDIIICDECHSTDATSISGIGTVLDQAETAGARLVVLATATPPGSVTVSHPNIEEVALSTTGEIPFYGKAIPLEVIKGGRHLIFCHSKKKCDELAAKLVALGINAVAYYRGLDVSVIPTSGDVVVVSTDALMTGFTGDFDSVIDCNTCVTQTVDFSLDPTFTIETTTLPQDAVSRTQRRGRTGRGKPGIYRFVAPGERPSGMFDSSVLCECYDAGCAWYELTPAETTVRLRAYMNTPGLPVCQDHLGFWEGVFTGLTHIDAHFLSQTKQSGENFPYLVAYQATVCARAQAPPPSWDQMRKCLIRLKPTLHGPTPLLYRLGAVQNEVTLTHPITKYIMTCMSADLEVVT
# method notes: FRET peptide assay to monitor HCV NS3/4A proteolytic activity (BMS strain)
# Type: biochemical, HCV genotype 1a
# assay setup: NS3/4A BMS strain; read-out: Activity Range (IC50)

## Input Record request: IC50 value, item C=C[C@@H]1C[C@]1(NC(=O)[C@@H]1C[C@@H](Cc2ccccc2)CN1C(=O)[C@@H](NC(=O)OC(C)(C)C)C(C)(C)C)C(=O)NS(=O)(=O)C1CC1 [Compound 2]
## Output > 1000 nM

## Input Try this molecule too: C=C[C@@H]1C[C@]1(NC(=O)[C@@H]1C[C@@](O)(c2cccc(F)c2)CN1C(=O)[C@@H](NC(=O)OC(C)(C)C)C(C)(C)C)C(=O)NS(=O)(=O)C1CC1 [Compound 10]
## Output 1 to 100 nM

## Input Try this molecule too: C=C[C@@H]1C[C@]1(NC(=O)[C@@H]1C[C@@](O)(c2cc(C)cc(C)c2)CN1C(=O)[C@@H](NC(=O)OC(C)(C)C)C(C)(C)C)C(=O)NS(=O)(=O)C1CC1 [Compound 21]
## Output 1 to 100 nM

## Input Try this molecule too: C=C[C@@H]1C[C@]1(NC(=O)[C@@H]1C[C@@](O)(c2cccc(CN3CCCCC3)c2)CN1C(=O)[C@@H](NC(=O)OC(C)(C)C)C(C)(C)C)C(=O)NS(=O)(=O)C1CC1 [Compound 18]
## Output 100 to 1000 nM

## Input Try this molecule too: C=C[C@@H]1C[C@]1(NC(=O)[C@@H]1C[C@@](O)(c2ccc3ccccc3c2)CN1C(=O)[C@@H](NC(=O)OC(C)(C)C)C(C)(C)C)C(=O)NS(=O)(=O)C1CC1 [Compound 5]
## Output 1 to 100 nM

## Input Try this molecule too: C=C[C@@H]1C[C@]1(NC(=O)[C@@H]1C[C@@](O)(c2cccc(CN3CCCC3)c2)CN1C(=O)[C@@H](NC(=O)OC(C)(C)C)C(C)(C)C)C(=O)NS(=O)(=O)C1CC1 [Compound 17]
## Output 100 to 1000 nM

## Input Try this molecule too: C=C[C@@H]1C[C@]1(NC(=O)[C@@H]1C[C@@](O)(c2cccc(C(C)C)c2)CN1C(=O)[C@@H](NC(=O)OC(C)(C)C)C(C)(C)C)C(=O)NS(=O)(=O)C1CC1 [Compound 14]
## Output 100 to 1000 nM

## Input Try this molecule too: C=C[C@@H]1C[C@]1(NC(=O)[C@@H]1C[C@@](O)(c2cc(F)ccc2OC)CN1C(=O)[C@@H](NC(=O)OC(C)(C)C)C(C)(C)C)C(=O)NS(=O)(=O)C1CC1 [Compound 25]
## Output 100 to 1000 nM

## Input Try this molecule too: C=C[C@@H]1C[C@]1(NC(=O)[C@@H]1C[C@@](O)(c2ccc(OC)cc2)CN1C(=O)[C@@H](NC(=O)OC(C)(C)C)C(C)(C)C)C(=O)NS(=O)(=O)C1CC1 [Compound 7]
## Output 100 to 1000 nM

## Input Try this molecule too: C=C[C@@H]1C[C@]1(NC(=O)[C@@H]1C[C@@](O)(c2ccc(C)c(F)c2)CN1C(=O)[C@@H](NC(=O)OC(C)(C)C)C(C)(C)C)C(=O)NS(=O)(=O)C1CC1 [Compound 23]
## Output 100 to 1000 nM
